# Tested on: ACHN renal
# methodNotes: NCI tumour cell line growth inhibition, 48 h
observationType: GI50

Use these answered entries as a reference point.
c1cc(N2CCN(c3ccc(C4=NCCN4)cc3)CC2)ccc1C1=NCCN1 | > 100 µM
CC(=O)OCC1OC(OC2CCCC[Si](c3ccccc3)(c3ccccc3)O2)C(OC(C)=O)C(OC(C)=O)C1OC(C)=O (centres undefined) | > 100 µM
CCN(CCCNC(=O)Cc1cc(=O)oc2cc(N(C)C)ccc12)CCNc1ccnc2cc(Cl)ccc12 | 9.21 µM
CCC(CC)COC(=O)[C@H](C)N[P@](=O)(OC[C@H]1O[C@@](C#N)(c2ccc3c(N)ncnn23)[C@H](O)[C@@H]1O)Oc1ccccc1 | 18.3 µM
O=C(Nc1cccc(-n2cc(-c3ccncc3)c(-c3ccc(Cl)c(O)c3)n2)c1)Nc1cccc(C(F)(F)F)c1 | 1.29 µM
CC1=C(C(=O)Nc2ccc(Cl)c(Cl)c2)C(c2ccccc2Cl)NC(=S)N1 (centres undefined) | 10.9 µM
CCCCC/C=C/C(=O)CCc1ccc(O)c(OC)c1 | 11.8 µM
O=C(NC1CCCCC1)NS(=O)(=O)c1ccc(-n2nc3c(c2-c2cccs2)Cc2ccccc2-3)cc1 | 17.3 µM

Pending molecule:
Lookup: Recorded GI50 for O=[N+]([O-])c1cccc2nc3ccccc3c(NCCO)c12 , please?
Found: 0.000189 µM

Data provenance: PubChem BioAssay (NCI)
